B1: TNXB (parent)
chain: FSEIRETSAKVNWMPPPSRADSFK

- Variants of: B1
- assay summary: protein stability index of a GFP-peptide fusion (GPS, HEK-293T) (PSI 1-6); higher = more stable;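 further: lentivirally expressed fusions sorted by FACS into six bins by GFP to DsRed ratio, PSI derived from sequencing read proportions per bin multiplied by bin number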
- study conditions: c terminus: a fixed tail appended
I'd be grateful if you could share measured protein stability index for these entries.

Completed entries (count: 5):
**Query** State the recorded protein stability index for this entry: R19P
**Result** 3.7

**Query** State the recorded protein stability index for this entry: S8P
**Result** 3.3

**Query** State the recorded protein stability index for this entry: S8L
**Result** 2.79

**Query** State the recorded protein stability index for this entry: S2I
**Result** 2.17

**Query** State the recorded protein stability index for this entry: S8W
**Result** 2.1

I have 4 variants here; please give me protein stability index for each one.
1. S2W
2. S22A
3. A20V
4. P16Y

**Result**
[2.37, 3.32, 2.46, 2.67]

I have 6 variants here; please give me protein stability index for each one.
1. A20Q
2. S8H
3. E6D
4. M14A
5. M14H
6. A9E

**Result**
1: 3.27; 2: 3.4; 3: 3.28; 4: 3.17; 5: 3.44; 6: 4.04
